Biological target: RNase L (Homo sapiens, UniProt Q05823)
Sequence (Q05823 1-741): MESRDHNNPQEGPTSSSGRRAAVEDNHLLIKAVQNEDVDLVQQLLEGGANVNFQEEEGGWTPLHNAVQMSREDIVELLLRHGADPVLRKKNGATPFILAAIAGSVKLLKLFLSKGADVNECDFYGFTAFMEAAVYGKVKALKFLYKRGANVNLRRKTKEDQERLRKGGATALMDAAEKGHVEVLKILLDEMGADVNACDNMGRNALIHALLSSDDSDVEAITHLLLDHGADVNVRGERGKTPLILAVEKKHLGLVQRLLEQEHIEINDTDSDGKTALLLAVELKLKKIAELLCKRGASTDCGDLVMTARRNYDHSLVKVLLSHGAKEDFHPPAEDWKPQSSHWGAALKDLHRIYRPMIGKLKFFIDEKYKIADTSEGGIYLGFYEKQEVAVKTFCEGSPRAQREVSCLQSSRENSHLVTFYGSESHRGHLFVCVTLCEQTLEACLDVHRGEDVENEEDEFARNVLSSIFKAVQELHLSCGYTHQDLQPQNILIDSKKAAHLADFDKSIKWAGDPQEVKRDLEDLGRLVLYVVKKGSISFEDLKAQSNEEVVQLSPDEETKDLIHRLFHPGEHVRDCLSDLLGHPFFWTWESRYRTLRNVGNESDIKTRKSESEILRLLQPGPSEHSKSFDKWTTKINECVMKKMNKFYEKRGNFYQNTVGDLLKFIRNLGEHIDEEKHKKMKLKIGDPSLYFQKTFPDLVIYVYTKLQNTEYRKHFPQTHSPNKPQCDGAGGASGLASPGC
Assay: FRET RNA cleavage assay
Format: biochemical
property-measured: IC50

(Q) Requested read-out IC50, target or system RNase L (Homo sapiens, UniProt Q05823), entry COc1cc(/C=C/C(=O)CC(=O)/C=C/c2ccc(O)c(OC)c2)ccc1O
(A) ~30 µM

Hello, the source for this data is paper PMC6326797, in case you need it.
